Tested on: Methicillin Resistant Staphylococcus aureus strain USA 300, NRS384
ASSAY_DETAILS: Minimum inhibitory concentration, broth micro-dilution (CLSI), S. aureus
Type: cell-based
RUN_PARAMETERS: Staphylococcus aureus, MRSA / NRS 384 / USA300, 22 h, MRSA USA 300 NRS384; 35° C., 22 hours; read-out: MIC (μg/mL) S. aureus
Labelling: MIC reported below 0.2 µg/mL becomes yes (1); at or above becomes no (0).

Reference set (4 entries):
Enquiry: Is 0.2 µg/mL strictly greater than the compound's reported MIC? compound: CCCCc1ccc(C(=O)N[C@@H](CCC(N)=O)C(=O)N(C)[C@@H]2C(=O)N[C@@H](C)C(=O)N[C@H](C(=O)NCC#N)Cc3ccc(OCCN)c(c3)-c3cc2ccc3OCCN)c(C)c1
Return: no (0)

Enquiry: Lab log: compare recorded MIC with 0.2 µg/mL; is it strictly lower for Cc1cc(C(C)(C)C)ccc1C(=O)N[C@@H](CCN)C(=O)N(C)[C@@H]1C(=O)N[C@@H](C)C(=O)N[C@H](C(=O)NCC#N)Cc2ccc(OCCN)c(c2)-c2cc1ccc2OCCN ?
Return: no (0)

Enquiry: Strictly below 0.2 µg/mL: is that where MIC of Cc1cc(-c2ccc(CC(C)C)cc2)ccc1C(=O)N[C@@H](CC(N)=O)C(=O)N(C)[C@@H]1C(=O)N[C@@H](C)C(=O)N[C@H](C(=O)NCC#N)Cc2ccc(OCCN)c(c2)-c2cc1ccc2OCCN sits?
Return: yes (1)

Enquiry: API: query returns whether the compound falls strictly under 0.2 µg/mL in MIC. Query: CCCCCCc1ccc(-c2ncc(C(=O)N[C@@H](CCN)C(=O)N(C)[C@@H]3C(=O)N[C@@H](C)C(=O)N[C@H](C(=O)NCC#N)Cc4ccc(OCCN)c(c4)-c4cc3ccc4OCCN)n2C)cc1
Return: yes (1)

Now for another entry.
Enquiry: Is it true that MIC reported for CCCCc1ccc(NC(=O)CCC(=O)N[C@@H](CCN)C(=O)N(C)[C@@H]2C(=O)N[C@@H](C)C(=O)N[C@H](C(=O)NCC#N)Cc3ccc(OCCN)c(c3)-c3cc2ccc3OCCN)c(C)c1 is less than 0.2 µg/mL?
Return: yes (1)
